Biological target: glucocorticoid receptor (GR) (Homo sapiens)
Construct: purchased Panvera Corp, Madison, Wis
Assay: Glucocorticoid Receptor Competitor Assay Kit (Panvera) ligand binding
Conditions: Table 2; read-out: GR Binding (IC50)
OBSERVED PROPERTY: IC50 (nM)

In the examples that follow, each entry is paired with its recorded IC50.
CC12Cc3cnn(-c4ccc(F)cc4)c3C=C1CCc1c2[nH]c2ccc(F)cc12 (stereo not shown) : 130
CC12Cc3cnn(-c4ccc(F)cc4)c3C=C1CCC(=Cc1c3ccccc3cc3ccccc13)C2=O (stereo not shown) : 43

P: CC12Cc3cnn(-c4ccc(F)cc4)c3C=C1CCc1c2[nH]c2ccc(Br)cc12 (stereo not shown)
Q: COc1ccc2[nH]c3c(c2c1)CCC1=Cc2c(cnn2-c2ccc(F)cc2)CC13C (stereo not shown)
// query Look at P and Q . Which one has the lower recorded IC50 number? Identify your pick by its label.
// result Q
(Q: 239 nM, P: 708 nM)

---

Molecular target: GR (Homo sapiens, UniProt P04150)
Construct: expressed in transfected cells; host or cells: CV-1 cells, transient transfection (plasmid a gift of Keith Yamamoto, UCSF)
Sequence (P04150 1-777): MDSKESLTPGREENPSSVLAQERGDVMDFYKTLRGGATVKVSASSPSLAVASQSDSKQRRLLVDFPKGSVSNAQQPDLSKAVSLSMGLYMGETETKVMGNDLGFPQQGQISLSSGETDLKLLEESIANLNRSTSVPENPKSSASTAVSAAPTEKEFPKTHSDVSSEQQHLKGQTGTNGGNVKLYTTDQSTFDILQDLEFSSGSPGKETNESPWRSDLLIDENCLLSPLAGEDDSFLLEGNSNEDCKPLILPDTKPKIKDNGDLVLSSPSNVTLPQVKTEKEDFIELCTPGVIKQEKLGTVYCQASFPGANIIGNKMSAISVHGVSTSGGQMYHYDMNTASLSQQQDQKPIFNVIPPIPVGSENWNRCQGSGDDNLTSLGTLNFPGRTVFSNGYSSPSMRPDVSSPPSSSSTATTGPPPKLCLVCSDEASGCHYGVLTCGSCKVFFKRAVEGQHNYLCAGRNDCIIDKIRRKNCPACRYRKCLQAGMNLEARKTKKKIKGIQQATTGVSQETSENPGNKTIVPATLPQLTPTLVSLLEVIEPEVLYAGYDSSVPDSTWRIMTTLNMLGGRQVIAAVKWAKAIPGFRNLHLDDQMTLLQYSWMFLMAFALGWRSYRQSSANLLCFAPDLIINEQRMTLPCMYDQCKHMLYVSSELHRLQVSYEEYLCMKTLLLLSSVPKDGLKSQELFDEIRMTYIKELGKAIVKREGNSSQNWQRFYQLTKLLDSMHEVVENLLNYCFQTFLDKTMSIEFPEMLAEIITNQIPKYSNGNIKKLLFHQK
Test: GRE (TAT3-Luc) activation luciferase assay in CV-1 cells transfected with GR
Assay type: cell-based
Details: Table 4; fold
OBSERVED PROPERTY: GRE activation max fold activation

As a guide, the following entries are already answered.
COc1cc(C(O)C2CCCC3=Cc4c(cnn4-c4ccc(F)cc4)CC32C)cc(OC)c1OC (stereo not shown) : 32
CC12Cc3cnn(-c4ccc(F)cc4)c3C=C1CCCC2C(O)c1csc2ccccc12 (stereo not shown) : 21

1: Cc1cc(O)cc(C)c1C(O)C1CCCC2=Cc3c(cnn3-c3ccc(F)cc3)CC21C (stereo not shown)
2: C[C@]12CCC(=O)C=C1CC[C@@H]1[C@@H]2[C@@H](O)C[C@]2(C=O)[C@@H](C(=O)CO)CC[C@@H]12 [Aldosterone, reference compound]
// query Looking at 1 and 2 , which one comes out lower in GRE activation max fold activation terms? Answer by stating the label of the chosen item.
// result 2
(2: 41, 1: 95)

Cited source: patent US7947726B2
